Biological target: T1, iASPP CTD (625–828) (UniProt Q8WUF5 625-828)
T1 chain: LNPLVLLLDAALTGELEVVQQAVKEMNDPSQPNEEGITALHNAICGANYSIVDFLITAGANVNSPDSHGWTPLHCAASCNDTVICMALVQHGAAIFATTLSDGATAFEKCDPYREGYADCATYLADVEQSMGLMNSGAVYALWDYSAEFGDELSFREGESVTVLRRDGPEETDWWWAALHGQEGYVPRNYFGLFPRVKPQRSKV
Assay: ITC
Quantity measured: Kd (µM)

                                     binder  quantity_measured  observed
0  WLKPAAAPPPTPLRADGAPSA [JunD peptide (WLKPAAAPPPTPLRADGAPSA)]                 Kd      4.58
